- system.tested: shed MICA002 polypeptide (human) (UniProt Q29983)
- experimental.details: capture ELISA (anti-hFc / antibody / shed antigen / biotin-6D4)
Below is a list of entries, each paired with its recorded EC50 value.
The reply should be a number in mg/L, with the unit left off.

Previously resolved entries follow.
binder	readout.units	EC50
1D5 (antibody, human IgG1, kappa, V domains shown) VH: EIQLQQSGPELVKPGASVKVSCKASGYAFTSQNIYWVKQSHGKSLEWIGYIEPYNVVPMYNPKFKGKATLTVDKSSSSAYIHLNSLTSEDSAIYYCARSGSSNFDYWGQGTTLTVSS VL: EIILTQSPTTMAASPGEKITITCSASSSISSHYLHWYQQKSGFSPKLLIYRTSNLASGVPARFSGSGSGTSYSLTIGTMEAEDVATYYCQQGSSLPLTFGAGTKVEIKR	mg/L	0.02
6E1.1.12 (antibody, human IgG1, kappa, V domains shown) VH: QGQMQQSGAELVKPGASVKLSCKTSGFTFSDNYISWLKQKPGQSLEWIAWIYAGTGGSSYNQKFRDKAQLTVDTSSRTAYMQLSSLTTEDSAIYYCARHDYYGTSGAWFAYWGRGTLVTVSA VL: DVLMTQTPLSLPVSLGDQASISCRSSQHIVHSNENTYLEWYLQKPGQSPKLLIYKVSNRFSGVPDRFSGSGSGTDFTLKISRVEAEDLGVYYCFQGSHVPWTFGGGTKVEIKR	mg/L	0.22

Now look at this one.
Task: Returns the measured EC50 for the input binder. Input: #31 (antibody, V domains shown) VH: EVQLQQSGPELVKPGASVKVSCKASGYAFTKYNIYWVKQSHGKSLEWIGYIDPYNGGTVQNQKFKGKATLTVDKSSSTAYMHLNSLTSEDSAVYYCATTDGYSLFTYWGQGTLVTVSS VL: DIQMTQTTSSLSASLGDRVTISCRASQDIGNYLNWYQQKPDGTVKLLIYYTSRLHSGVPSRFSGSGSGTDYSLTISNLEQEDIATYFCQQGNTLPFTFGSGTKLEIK
Output: 0.13
